- tgt: T1, IL10Rα/IL2Rγ receptor (human) (UniProt Q13651)
- T1 sequence (looked up) 1: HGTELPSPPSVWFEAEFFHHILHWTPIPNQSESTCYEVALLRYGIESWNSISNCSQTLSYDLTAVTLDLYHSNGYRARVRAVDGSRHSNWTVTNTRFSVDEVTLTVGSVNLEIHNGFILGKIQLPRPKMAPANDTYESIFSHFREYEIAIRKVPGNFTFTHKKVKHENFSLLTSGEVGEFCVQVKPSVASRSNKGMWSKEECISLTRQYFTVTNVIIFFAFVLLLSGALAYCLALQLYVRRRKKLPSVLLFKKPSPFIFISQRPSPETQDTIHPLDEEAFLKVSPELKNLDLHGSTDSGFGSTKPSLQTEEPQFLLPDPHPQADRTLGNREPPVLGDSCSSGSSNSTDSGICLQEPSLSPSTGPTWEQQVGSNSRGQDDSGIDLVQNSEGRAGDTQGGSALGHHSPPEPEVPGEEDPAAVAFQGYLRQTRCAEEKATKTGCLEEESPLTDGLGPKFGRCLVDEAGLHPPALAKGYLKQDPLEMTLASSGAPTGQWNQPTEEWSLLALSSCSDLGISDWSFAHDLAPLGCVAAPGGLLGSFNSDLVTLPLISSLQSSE
- T1 sequence (looked up) 2: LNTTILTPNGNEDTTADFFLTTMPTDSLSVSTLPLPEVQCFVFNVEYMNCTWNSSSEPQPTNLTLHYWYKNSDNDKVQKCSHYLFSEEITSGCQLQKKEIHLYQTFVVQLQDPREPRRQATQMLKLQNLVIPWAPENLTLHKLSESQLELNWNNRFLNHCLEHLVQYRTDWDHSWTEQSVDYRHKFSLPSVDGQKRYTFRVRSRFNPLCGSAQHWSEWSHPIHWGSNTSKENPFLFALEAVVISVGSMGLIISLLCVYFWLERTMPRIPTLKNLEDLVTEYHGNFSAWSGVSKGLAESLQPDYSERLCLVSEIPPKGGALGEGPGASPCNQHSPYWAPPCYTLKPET
- methodNotes: cell-based or functional assay
// reported Granzyme B secretion, CD8 T cells, at 0.0001 µM per item
Express the result in pg/mL but write the number alone.

In plain terms, hIL10Ra_VHH14 - hIL2Rg_VHH19, linker GGGSGGGS, tag his (bispecific antibody, not shown: small tags and cut ends) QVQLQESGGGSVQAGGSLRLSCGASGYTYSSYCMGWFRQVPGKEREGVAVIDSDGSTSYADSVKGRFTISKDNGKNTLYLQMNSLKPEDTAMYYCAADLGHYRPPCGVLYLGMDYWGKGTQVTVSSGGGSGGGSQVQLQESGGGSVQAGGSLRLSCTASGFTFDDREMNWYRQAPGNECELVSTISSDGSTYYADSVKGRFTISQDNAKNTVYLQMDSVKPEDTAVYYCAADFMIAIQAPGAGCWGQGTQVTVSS has a documented Granzyme B secretion, CD8 T cells, at 0.0001 µM of 52600
